Data origin: PubChem BioAssay (NCI)

- System: SW-620 colon
- ASSAY METHOD TEXT: NCI tumour cell line growth inhibition, 48 h; in the data active = GI50 below about 0.43 µM; inactive = the rest
Choose the fitting class; nothing outside Yes = active, No = inactive is accepted.

(Q) Outcome logged for CCN1C(=O)N(CC)C2C1NN=c1s/c(=C\c3ccc(Br)cc3)c(=O)n12 (stereo unspecified) in this assay:
(A) Yes

(Q) Outcome logged for `O=C(Nc1cccc(Cl)c1)Nc1cc(C(F)(F)F)ccc1Cl` in this assay:
(A) No

(Q) Outcome logged for `Cn1cc(-c2nc(-c3c[nH]c4ccccc34)cs2)c2cccnc21` in this assay:
(A) Yes

(Q) Outcome logged for `O=C1NC(=O)/C(=C/c2ccc3nccc(-c4ccncc4)c3c2)S1` in this assay:
(A) No

(Q) Outcome logged for `CCCCCCCN(CCCCCCC)C(=N)c1ccc(OC)c2ccccc12` in this assay:
(A) No

(Q) Outcome logged for `CCN(Cc1c(F)cccc1C(F)(F)F)c1ccc(CO)c(Cl)c1` in this assay:
(A) No

====

- Tested on: UACC-257 melanoma
- ASSAY METHOD TEXT: NCI tumour cell line growth inhibition, 48 h
Please respond with reported GI50 for every item in the list.

(Q) Entry `CN1c2cccc[c]2[Sn]([CH3])([CH3])[c]2ccccc21` has what GI50?
(A) < 0.01 µM

(Q) Entry `O=C(Nc1n[nH]c2cc(-c3ccc(F)cc3)ccc12)C1CC1` has what GI50?
(A) 14.1 µM

(Q) Entry `O=C(COc1ccc(Cl)cc1Cl)NNc1ccc([N+](=O)[O-])cc1` has what GI50?
(A) 99.6 µM

(Q) Entry `O=C(/C=C/c1cc2ccccc2[nH]c1=O)c1ccc(O)cc1` has what GI50?
(A) 3.87 µM

(Q) Entry `Cc1ccc2c(c1)n([O-])c(C(F)(F)F)c(C(=O)c1ccco1)[n+]2=O` has what GI50?
(A) 0.924 µM

(Q) Entry O=[N+]([O-])c1ccc(NC(c2ccccc2)c2ccc3cccnc3c2O)cc1 (centres undefined) has what GI50?
(A) 0.548 µM

(Q) Entry Cc1cc(C2CC(O)C(CO)O2)c(Br)cc1Br (centres undefined) has what GI50?
(A) > 100 µM

(Q) Entry OCC1OC(n2cnc3cc(Cl)c(Cl)cc32)C(O)C1O (centres undefined) has what GI50?
(A) 18.7 µM

(Q) Entry `COc1cc(N2CCN(C(C)C)CC2)ccc1Nc1nc(Nc2ccc(F)cc2C(N)=O)c2cc[nH]c2n1` has what GI50?
(A) 0.194 µM

(Q) Entry `Nc1cc2c3ccccc3ccc2c2ccccc12` has what GI50?
(A) > 100 µM

(Q) Entry `COc1cccc(/C=C/C(=O)c2cc3c(N)c(C(=O)Nc4ccccc4)sc3nc2C)c1` has what GI50?
(A) 1.9 µM

(Q) Entry C#Cc1cccc(NC(=O)C2CCCCN2C(=O)CCl)c1 (centres undefined) has what GI50?
(A) 26.2 µM

(Q) Entry `COc1cc2cc(C(=O)Nc3ccccc3)c(N)nc2cc1OC` has what GI50?
(A) 39.4 µM

(Q) Entry `[N-]=[N+]=NCCCn1c2c(c3ccccc3c1=O)C(=O)c1cc3c(cc1-2)OCO3` has what GI50?
(A) > 100 µM

====

- System: SNB-19 CNS
- ASSAY METHOD TEXT: NCI tumour cell line growth inhibition, 48 h
EXPERIMENTAL ENDPOINT: TGI

(Q) Entry `COc1ccc2nc3c(nc2c1)C(C)(C)C=C3c1ccc(Br)cc1` has what TGI?
(A) > 100 µM

(Q) Entry `COc1cc(/C=C/[N+](=O)[O-])cc(OC)c1` has what TGI?
(A) 22.1 µM

(Q) Entry `Cc1cc(S(=O)(=O)Nc2nc3ccccc3s2)c(SCc2ccccc2)cc1Cl` has what TGI?
(A) > 100 µM

(Q) Entry `CCCCCCCC(=O)[O-].N.N.N.N.N.[Co+3].[O-][Cl+3]([O-])([O-])[O-]` has what TGI?
(A) > 100 µM

(Q) Entry CC(=O)[C@H]1CC[C@@H]2[C@]1(C)CC=C1[C@]23C=C[C@]2(C[C@@H](O)CC[C@]12C)C(C(=O)O)C3C(=O)O (some centres not stated) has what TGI?
(A) > 100 µM

(Q) Entry `CC(C)c1cccc(C(C)C)c1NC(=O)/C(Cc1nc2ccc(Cl)cc2[nH]c1=O)=N\NC(=O)C[N+](C)(C)C` has what TGI?
(A) > 100 µM

(Q) Entry `Cc1cc2nc3c(C)c4ccccc4c(C)n3c2cc1C` has what TGI?
(A) > 10 µM

(Q) Entry OCC1OC(N2CCN(C3OC(CO)C(O)C(O)C3O)CC2)C(O)C(O)C1O (configuration not stated) has what TGI?
(A) > 100 µM

(Q) Entry `CC(=O)Nc1ccc(S(=O)(=O)Nc2cnc3ccccc3n2)cc1` has what TGI?
(A) > 100 µM

(Q) Entry `Cc1ccnc2[nH]c(-c3ccc(Cl)cc3)cc(=O)c12` has what TGI?
(A) > 100 µM

(Q) Entry `O=C(C#Cc1ccccc1)Nc1ccccc1CC(c1c[nH]c2ccccc12)c1c[nH]c2ccccc12` has what TGI?
(A) > 100 µM

(Q) Entry `COc1cc(-c2cc(-c3ccc(Nc4nc(Nc5ccc(Cl)cc5)nc(Nc5ccc(Cl)cc5)n4)cc3)no2)cc(OC)c1OC` has what TGI?
(A) > 100 µM

(Q) Entry `O=C(Nc1cccc(Cl)c1)Nc1cc(C(F)(F)F)ccc1Cl` has what TGI?
(A) 19.6 µM

(Q) Entry `OC[C@H](O)[C@@H](OCc1ccccc1)[C@H](NCc1ccccc1)c1cccs1` has what TGI?
(A) > 100 µM

(Q) Entry OCC1OC(NO)C(O)C(O)C1O (configuration not stated) has what TGI?
(A) > 100 µM

(Q) Entry `Nc1[nH]c(=S)[nH]c(=O)c1N=Nc1c(Br)cc(S(N)(=O)=O)cc1Br` has what TGI?
(A) > 100 µM

(Q) Entry COc1cc([C@@H]2c3cc4c(cc3[C@H](OC3OC5COC(C(C)C)OC5C(O)C3O)C3COC(=O)[C@@H]32)OCO4)cc(OC)c1OC (some centres not stated) has what TGI?
(A) > 40.6 µM

(Q) Entry `CNC(=O)/C(C#N)=C(\N)N1CCCC1` has what TGI?
(A) > 100 µM

(Q) Entry C#Cc1cccc(NC(=O)C2CCCCN2C(=O)CCl)c1 (configuration not stated) has what TGI?
(A) > 82.5 µM

(Q) Entry COC(=O)C1(N2CCOCC2)CCC([C@@H](c2ccccc2)C(C)[N+](=O)[O-])C1 (some centres not stated) has what TGI?
(A) > 100 µM

(Q) Entry CCN(CC)CCNC(=O)C1COc2ccc(-c3cc(=O)c4ccccc4o3)cc2O1 (configuration not stated) has what TGI?
(A) 59.9 µM

(Q) Entry `COc1cc2c(cc1OC)C/C(=N\O)c1cc(OC)c(OC)cc1/C=C\2` has what TGI?
(A) > 65.5 µM

(Q) Entry CC(C)C(N=C1CC2CCC1(C(=O)Nc1ccccc1O)C2(C)C)c1ccccc1 (configuration not stated) has what TGI?
(A) > 10 µM

(Q) Entry `COc1ccc(-c2oc(C=Nc3ccccc3)c([N+](=O)[O-])c2-c2ccc(OC)c(OC)c2)cc1OC` has what TGI?
(A) > 100 µM

(Q) Entry `Cc1cc(C(=O)NOCCO)c(Nc2ccc(I)cc2F)n(C)c1=O` has what TGI?
(A) > 100 µM

(Q) Entry CC(C)C(C=O)C(O)(C(F)(F)F)C(F)(F)F (configuration not stated) has what TGI?
(A) > 100 µM

(Q) Entry Cc1[nH]c(-c2ccccc2)c(O)c1C(=O)OC1CC(C)CCC1C(C)C (configuration not stated) has what TGI?
(A) 31.1 µM

(Q) Entry `COC(=O)C1=C(C(=O)OC)SC2(S1)C(C(=O)OC)=C(C(=O)OC)Sc1c2ssc1=O` has what TGI?
(A) 34.2 µM

(Q) Entry COc1c(C(=O)CC2c3c(cc4oc(C)cc(=O)c4c3OC)OC(=N)C2c2nc3ccccc3[nH]2)c(O)c(OC)c2occc12 (configuration not stated) has what TGI?
(A) > 100 µM

(Q) Entry O=C1C2=C(c3ccccc31)C(c1ccc([N+](=O)[O-])cc1)NC(=S)N2 (configuration not stated) has what TGI?
(A) > 100 µM

(Q) Entry CC1=NN(c2ccccc2)C(=O)C1N=Nc1ccc(Br)cc1C (configuration not stated) has what TGI?
(A) > 100 µM

(Q) Entry `Cc1cccc(N=Nc2ccc(O)c(CN(C)C)c2)c1` has what TGI?
(A) > 100 µM

====

- Test system: HCT-15 colon
- ASSAY METHOD TEXT: NCI tumour cell line growth inhibition, 48 h; in the data active means GI50 below about 0.43 µM; inactive means the rest
Choose the fitting class; nothing outside active, inactive is accepted.

(Q) Outcome logged for CCN1C(=O)N(CC)C2C1NN=c1s/c(=C\c3ccc(Br)cc3)c(=O)n12 (stereo not drawn) in this assay:
(A) active

(Q) Outcome logged for `COc1cc(-c2cc(-c3ccc(Nc4nc(Nc5ccc(Cl)cc5)nc(Nc5ccc(Cl)cc5)n4)cc3)no2)cc(OC)c1OC` in this assay:
(A) inactive

(Q) Outcome logged for Nc1nc(N)c2c(n1)NC(c1ccc(Cl)cc1)C1CCc3ccccc3C1=N2 (stereo not drawn) in this assay:
(A) inactive

(Q) Outcome logged for C[C@H]1O[C@@H](O[C@H]2[C@@H](O)C[C@H](O[C@H]3[C@@H](O)C[C@H](O[C@H]4CC[C@]5(C)C6CC[C@]7(C)[C@@H](C8=CC(=O)OC8)CC[C@]7(O)C6CC[C@@H]5C4)O[C@@H]3C)O[C@@H]2C)C[C@H](O)[C@@H]1O (stereo partly drawn) in this assay:
(A) active

(Q) Outcome logged for N/C(=N/O)NOCCC(N)C(=O)O (stereo not drawn) in this assay:
(A) inactive

(Q) Outcome logged for `Cc1cccc(Nc2ncc(-c3ccccc3)o2)c1` in this assay:
(A) inactive

(Q) Outcome logged for `COc1ccc(N2CCN(c3nc(-c4ccccn4)nc4sc5c(c34)CCCCCC5)CC2)cc1` in this assay:
(A) inactive

(Q) Outcome logged for `CC(=O)Nc1ccc2c(c1)[nH]c(=O)c1cc(NC(C)=O)ccc12` in this assay:
(A) inactive
